test: Volume of distribution at steady state in mouse at 1 mg/kg, iv; assay type: ADME, organism-based; conditions: in vivo, read-out: Vdss
value.type: Vd (L/kg)
Numbers only, in L/kg.

COc1ncc(-c2ccc3nccc(=O)n3c2)cc1NS(=O)(=O)c1ccc(F)cc1F :: 0.443

Note: attention shifts to another entry.
Let me know recorded Vd for COc1ncc(-c2ccc3ncc(Cl)c(=O)n3c2)cc1NS(=O)(=O)c1ccc(F)cc1F , thanks. 0.472

* * *

molecular target: Phosphatidylinositol 4,5-bisphosphate 3-kinase catalytic subunit alpha isoform (Homo sapiens, UniProt P42336); assay: Inhibition of PI3Kalpha (unknown origin) using PIP2 as substrate measured after 30 mins by HTRF assay
Sequence (P42336 whole entry, canonical isoform): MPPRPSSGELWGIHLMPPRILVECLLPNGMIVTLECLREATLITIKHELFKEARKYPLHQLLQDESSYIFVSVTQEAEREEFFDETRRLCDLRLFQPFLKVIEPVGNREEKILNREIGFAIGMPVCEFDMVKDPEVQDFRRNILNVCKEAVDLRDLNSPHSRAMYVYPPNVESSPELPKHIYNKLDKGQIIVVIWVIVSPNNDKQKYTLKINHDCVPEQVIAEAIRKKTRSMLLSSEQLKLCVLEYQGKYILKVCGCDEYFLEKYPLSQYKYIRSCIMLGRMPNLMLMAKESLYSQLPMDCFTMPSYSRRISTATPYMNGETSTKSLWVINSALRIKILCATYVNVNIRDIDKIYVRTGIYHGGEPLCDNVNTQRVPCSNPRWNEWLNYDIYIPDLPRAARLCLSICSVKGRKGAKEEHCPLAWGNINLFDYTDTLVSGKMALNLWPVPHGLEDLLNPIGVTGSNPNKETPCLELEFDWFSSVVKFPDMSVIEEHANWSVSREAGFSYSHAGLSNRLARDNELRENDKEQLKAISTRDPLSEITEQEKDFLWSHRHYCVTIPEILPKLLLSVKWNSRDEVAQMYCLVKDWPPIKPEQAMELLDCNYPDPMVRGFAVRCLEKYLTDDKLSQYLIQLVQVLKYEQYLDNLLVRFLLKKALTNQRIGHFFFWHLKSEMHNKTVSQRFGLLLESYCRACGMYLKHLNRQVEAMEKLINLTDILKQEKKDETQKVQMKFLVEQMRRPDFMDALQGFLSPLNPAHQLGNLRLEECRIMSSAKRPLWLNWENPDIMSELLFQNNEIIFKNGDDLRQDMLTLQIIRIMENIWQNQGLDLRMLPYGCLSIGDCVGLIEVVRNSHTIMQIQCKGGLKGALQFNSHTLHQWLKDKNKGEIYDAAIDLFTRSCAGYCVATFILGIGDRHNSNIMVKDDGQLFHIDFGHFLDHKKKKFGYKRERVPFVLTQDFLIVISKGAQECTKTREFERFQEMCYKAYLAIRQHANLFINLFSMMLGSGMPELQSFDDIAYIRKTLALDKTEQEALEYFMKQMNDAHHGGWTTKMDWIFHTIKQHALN
Kindly supply the reported IC50 values for the records listed here.
Answer with the value and then the unit.

COc1ncc(-c2ccc3ncc(Cl)c(=O)n3c2)cc1NS(=O)(=O)c1ccc(F)cc1F :: 3.4 nM

Give recorded IC50. COc1ncc(-c2ccc3nccc(=O)n3c2)cc1NS(=O)(=O)c1ccc(F)cc1F 3.1 nM

* * *

experiment: AUC (0 to last) in mouse at 1 mg/kg, iv; type: ADME, organism-based; design: dose 1 mg/kg, time 0 - last, route intravenous; conditions: in vivo
What AUC(0-t) was measured for each of the following?
Answers are plain numbers, in ng·h/mL.

COc1ncc(-c2ccc3nccc(=O)n3c2)cc1NS(=O)(=O)c1ccc(F)cc1F :: 3280

// Input: COc1ncc(-c2ccc3ncc(Cl)c(=O)n3c2)cc1NS(=O)(=O)c1ccc(F)cc1F . Output its AUC(0-t) only. 11900

* * *

test: AUC (0 to last) in mouse at 3 mg/kg, po; type: ADME, organism-based; parameters: dose 3 mg/kg, time 0 - last, route oral; conditions: in vivo
value.type: AUC(0-t) (µg·h/mL)
One number for each entry, in µg·h/mL.

COc1ncc(-c2ccc3ncc(Cl)c(=O)n3c2)cc1NS(=O)(=O)c1ccc(F)cc1F :: 38.6

# ---- query compound ----
Give AUC(0-t) for the following compound: COc1ncc(-c2ccc3nccc(=O)n3c2)cc1NS(=O)(=O)c1ccc(F)cc1F 13.8

* * *

experiment: Protein binding in rat plasma; type: ADME, cell-free
value.type: fraction unbound
Give bare numbers.

Look up and state reported fraction unbound for COc1ncc(-c2ccc3nccc(=O)n3c2)cc1NS(=O)(=O)c1ccc(F)cc1F 0.008

* * *

target: Serine/threonine-protein kinase mTOR (Homo sapiens, UniProt P42345); experiment: Inhibition of mTOR in human MCF7 cells assessed as reduction in P70S6K phosphorylation after 4 hrs by […] assay; type: cell-based
value.type: IC50 (nM)
Answers are plain numbers, in nM.

Record excerpt, results attached:
COc1ncc(-c2ccc3nccc(=O)n3c2)cc1NS(=O)(=O)c1cc(F)ccc1F :: 108
COc1ncc(-c2ccc3nccc(=O)n3c2)cc1NS(=O)(=O)c1ccc(C(F)(F)F)cc1 :: 163
COc1ccc(S(=O)(=O)Nc2cc(-c3ccc4nccc(=O)n4c3)cnc2OC)cc1 :: 138
COc1ncc(-c2ccc3nccc(=O)n3c2)cc1NS(=O)(=O)c1ccc(F)cc1 :: 106
COc1ncc(-c2ccc3nccc(=O)n3c2)cc1NS(=O)(=O)c1ccc(C#N)cc1 :: 246
COc1ncc(-c2ccc3ncc(C)c(=O)n3c2)cc1NS(=O)(=O)c1ccc(F)cc1F :: 119

I'm hoping you can list IC50 for every molecule here, please.
1. COc1ncc(-c2ccc3nccc(=O)n3c2)cc1NS(=O)(=O)c1cccc(F)c1
2. COc1ncc(-c2ccc3nccc(=O)n3c2)cc1NS(=O)(=O)c1ccc(Cl)cc1
3. COc1ncc(-c2ccc3ncc(Cl)c(=O)n3c2)cc1NS(=O)(=O)c1ccc(F)cc1F

[64, 223, 89.2]

Return reported IC50 values for all items listed beneath this line.
1. COc1ncc(-c2ccc3nccc(=O)n3c2)cc1NS(=O)(=O)c1ccc(F)cc1F
2. COc1ncc(-c2ccc3nccc(=O)n3c2)cc1NS(=O)(=O)c1ccccc1C

66
153
